For each record, write down the corresponding Secondary control signal.
TARGET_SYSTEM: fluorescent reagents used to detect binding activity

Name the reported Secondary control signal value associated with the binder rcSso7d.H1BA.4 (designed binder) MATVKFTYQGEEKQVDISKIKNVYRWGQYIIFSYDEGGGAYGWGWVSEKDAPKELLQMLEKQ
0%

Name the reported Secondary control signal value associated with the binder rcSso7d.H4.7 (designed binder) MATVKFTYQGEEKQVDISKIKYVWRHGQHIAFRYDEGGGAHGWGSVSEKDAPKELLQMLEKQ
0%

Name the reported Secondary control signal value associated with the binder rcSso7d.H1BA.1 (designed binder) MATVKFTYQGEEKQVDISKIKHVRRWGQYIIFAYDEGGGAYGGGWVSEKDAPKELLQMLEKQ
6%

Name the reported Secondary control signal value associated with the binder rcSso7d.H4.9 (designed binder) MATVKFTYQGEEKQVDISKIKYVKRIGQYISFNYDEGGGAHGHGIVSEKDAPKELLQMLEKQ
0%

Name the reported Secondary control signal value associated with the binder rcSso7d.H1BA.5 (designed binder) MATVKFTYQGEEKQVDISKIKYVRRYGQYIGFIYDEGGGAWGKGYVSEKDAPKELLQMLEKQ
0.9%

Name the reported Secondary control signal value associated with the binder rcSso7d.H1BA.6 (designed binder) MATVKFTYQGEEKQVDISKIKDVWRWGQWIDFIYDEGGGADGWGRVSEKDAPKELLQMLEKQ
0.5%

Name the reported Secondary control signal value associated with the binder rcSso7d.H7.1 (designed binder) MATVKFTYQGEEKQVDISKIKYVYRWGQRIWFRYDEGGGAIGRGRVSEKDAPKELLQMLEKQ
1.8%

Name the reported Secondary control signal value associated with the binder rcSso7d.H6BA.3 (designed binder) MATVKFTYQGEEKQVDISKIKRVIRAGQSIIFSYDEGGGAIGHGWVSEKDAPKELLQMLEKQ
1.7%

Name the reported Secondary control signal value associated with the binder rcSso7d.H6BA.2 (designed binder) MATVKFTYQGEEKQVDISKIKWVYRWGQYIIFAYDEGGGAAGKGSVSEKDAPKELLQMLEKQ
7.3%

Name the reported Secondary control signal value associated with the binder rcSso7d.H2BA.1 (designed binder) MATVKFTYQGEEKQVDISKIKRVIRYGQAIAFAYDEGGGARGYGWVSEKDAPKELLQMLEKQ
3.2%

Name the reported Secondary control signal value associated with the binder rcSso7d.H4.6 (designed binder) MATVKFTYQGEEKQVDISKIKSVHRYGQKIYFDYDEGGGAIGKGHVSEKDAPKELLQMLEKQ
0%

Name the reported Secondary control signal value associated with the binder rcSso7d.H6BA.1 (designed binder) MATVKFTYQGEEKQVDISKIKWVYRYGQYIIFGYDEGGGAKGNGYVSEKDAPKELLQMLEKQ
1.5%

Name the reported Secondary control signal value associated with the binder rcSso7d.H4.5 (designed binder) MATVKFTYQGEEKQVDISKIKGVYRHGQSIWFRYDEGGGAWGWGIVSEKDAPKELLQMLEKQ
0.6%

Name the reported Secondary control signal value associated with the binder rcSso7d.H4.3 (designed binder) MATVKFTYQGEEKQVDISKIKHVWRRGQNIYFRYDEGGGAWGAGAVSEKDAPKELLQMLEKQ
0%

Name the reported Secondary control signal value associated with the binder rcSso7d.H4.4 (designed binder) MATVKFTYQGEEKQVDISKIKSVKRNGQSIDFDYDEGGGAAGEGKVSEKDAPKELLQMLEKQ
0%

Name the reported Secondary control signal value associated with the binder rcSso7d.H4.8 (designed binder) MATVKFTYQGEEKQVDISKIKDVWRHGQHIIFSYDEGGGAYGAGHVSEKDAPKELLQMLEKQ
0%
